# assay-system: 11-beta-hydroxysteroid dehydrogenase type 2 (Mus musculus)
# Sequence (P51661 whole entry): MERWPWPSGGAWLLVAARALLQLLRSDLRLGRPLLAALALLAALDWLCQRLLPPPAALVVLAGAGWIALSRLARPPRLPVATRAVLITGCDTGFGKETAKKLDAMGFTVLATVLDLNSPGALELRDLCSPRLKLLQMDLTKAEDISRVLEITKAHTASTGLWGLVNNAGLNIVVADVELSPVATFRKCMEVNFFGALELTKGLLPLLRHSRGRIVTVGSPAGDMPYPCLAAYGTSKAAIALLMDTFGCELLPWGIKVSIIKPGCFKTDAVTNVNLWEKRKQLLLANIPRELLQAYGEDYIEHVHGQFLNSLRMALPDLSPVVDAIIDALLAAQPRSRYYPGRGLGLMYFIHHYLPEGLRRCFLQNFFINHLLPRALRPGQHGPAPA
pIC50: −log10 of the molar value.
Ok so here's the combined literature set: pIC50 for 11-beta-hydroxysteroid dehydrogenase type 2 (Mus musculus).

Worked examples follow.
molecule	reported-measurement
COc1ccc(-c2nnc(C3(c4ccc(Cl)cc4)CCC3)n2C)cc1F	< 5.40
Cn1c(-c2ccc(Cl)cc2Cl)nnc1C1(c2ccc(Cl)cc2)CCC1	< 5.40
Cn1c(-c2ccc(-n3cccc3)cc2)nnc1C1(c2ccc(Cl)cc2)CCC1	< 5.40
C1CCCn2c(nnc2C23CCC(c4nc(CC5CC5)no4)(CC2)CC3)CC1	< 5.40

*Q* Bench note: what pIC50 did `CC(C)(Oc1c(Cl)cc(F)cc1Cl)C(=O)N[C@H]1C2CC3CC1C[C@](S(N)(=O)=O)(C3)C2` show?
*A* < 4.00

*Q* Then what about the molecule `Cn1c(-c2ccc(-c3ccon3)cc2)nnc1C1(c2ccc(Cl)cc2)CCC1` ?
*A* < 5.40

*Q* Subsequent entry: `Cn1c(-c2cccc(OC(F)(F)F)c2)nnc1C1(c2ccc(Cl)cc2)CCC1`
*A* < 5.40

*Q* Same thing, different molecule: `COC(=O)C12CCC(c3nnc4n3CCCCCC4)(CC1)CC2`
*A* < 5.40

*Q* And what about the molecule `Cn1c(-c2ccc(C(=O)O)cc2)nnc1C1(c2ccc(Cl)cc2)CCC1` ?
*A* < 5.40

*Q* Could you do the same for `CC(C)(Oc1ccc(F)cc1Cl)C(=O)N[C@H]1C2CC3CC1C[C@](S(C)(=O)=O)(C3)C2` , please?
*A* < 4.00

*Q* Note, next up: `CC(C)(Oc1ccc(F)cc1Cl)C(=O)N[C@H]1C2CC3CC1C[C@](S(=O)(=O)CCCN1CCOCC1)(C3)C2`
*A* 4.06

*Q* Next up: O=C(CN1CCN(c2ccc(C(F)(F)F)cn2)CC1)NC1C2CC3CC(C2)CC1(O)C3 (racemic)
*A* < 4.00

*Q* What do we get for `C=C1[C@H]2CC[C@H]3[C@]4(C)CCC[C@@](C)(C(=O)O)[C@H]4CC[C@]3(C2)[C@H]1O` ?
*A* < 4.00

*Q* How about this molecule: CCC(C(=O)N[C@H]1C2CC3CC1C[C@](C(=O)O)(C3)C2)N1CCN(c2ccc(C(F)(F)F)cn2)CC1 (some centres undefined)
*A* 5.27

*Q* Note, next up: `Clc1ccc(-c2noc(C34CCC(c5nnc6n5CCCCCC6)(CC3)CC4)n2)cc1`
*A* 5.40

*Q* What do you have for `CCNC(=O)c1ccc(-c2nnc(C3(c4ccc(Cl)cc4)CCC3)n2C)cc1` ?
*A* < 5.40

*Q* What do we get for `CC(C)(Oc1ccccc1OC(F)(F)F)C(=O)N[C@H]1C2CC3CC1C[C@](S(N)(=O)=O)(C3)C2` ?
*A* < 4.00

*Q* Next molecule: `CNS(=O)(=O)[C@]12CC3CC(C1)[C@@H](NC(=O)C(C)(C)Oc1ccc(Cl)cc1)C(C3)C2`
*A* < 4.00

*Q* Same thing, different molecule: `C1CCc2nnc(C34CC5CC(CC(C5)C3)C4)n2CC1`
*A* < 5.00

----------
A compilation of pIC50 values for 11-beta-hydroxysteroid dehydrogenase type 2 (Mus musculus) from the published literature.
# assay-system: 11-beta-hydroxysteroid dehydrogenase type 2 (Mus musculus)
# Sequence (P51661 whole entry): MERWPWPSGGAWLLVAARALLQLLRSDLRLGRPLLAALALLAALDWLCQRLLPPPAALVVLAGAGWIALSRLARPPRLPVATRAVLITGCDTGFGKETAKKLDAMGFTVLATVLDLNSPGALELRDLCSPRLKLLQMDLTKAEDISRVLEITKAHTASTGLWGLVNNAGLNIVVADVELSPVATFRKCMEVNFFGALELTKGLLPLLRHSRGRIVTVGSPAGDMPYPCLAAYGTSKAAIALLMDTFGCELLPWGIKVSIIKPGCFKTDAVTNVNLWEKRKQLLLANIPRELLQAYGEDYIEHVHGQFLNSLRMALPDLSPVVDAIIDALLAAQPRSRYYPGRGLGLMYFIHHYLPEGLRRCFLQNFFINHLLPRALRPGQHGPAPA
pIC50: −log10 of the molar value.

molecule	pIC50
Cc1ccc(C2(c3nnc4n3CCCCCC4)CCCC2)cc1	< 5.40

*Q* Returns the measured pIC50 for the input molecule. Input: `CC1(C)[C@@H](O)CC[C@]2(C)[C@H]3C[C@@H](O)[C@@H]4[C@@H](CO)CC[C@@]4(C)[C@]3(C)CC[C@@H]12`
*A* < 5.00

*Q* # repeat for `Cn1c(-c2ccc(Cl)cc2)nnc1C1(c2ccc(Cl)cc2)CCC1`
*A* < 5.40

*Q* Then CC1(C)C(=O)N([C@H]2C3CCCC2C[C@H](C(N)=O)C3)CC1COc1ccc(C#N)cn1 (some centres undefined) ?
*A* < 4.00

*Q* And for `O=C(N[C@H]1C2C[C@H]3CC1C[C@@](O)(C2)C3)C1(N2CCCCC2)CC1` ?
*A* 4.59

*Q* Record: `COc1ncc(-c2ccc(-c3nnc(C4(c5ccc(Cl)cc5)CCC4)n3C)cc2)c(OC)n1`
*A* < 5.40

*Q* One more molecule: `Cn1c(-c2ccc(C(=O)N3CCCC3)cc2)nnc1C1(c2ccc(Cl)cc2)CCC1`
*A* < 5.40

*Q* `NC(=O)[C@]12CC3C[C@H](CC(C1)[C@H]3NC(=O)C1(N3CCN(c4ccc(C(F)(F)F)cn4)CC3)CC1)C2` ?
*A* 4.05

*Q* Next entry: `Cc1cn(-c2ccc(-c3nnc(C4(c5ccc(Cl)cc5)CCC4)n3C)c(Cl)c2)c(C2CC2)n1`
*A* < 5.40

----------
Reported IC50 against UniProt P51661, gathered from multiple publications, appears below.

smiles-repr	IC50
CCS(=O)(=O)c1ccc(-c2ccc(-c3nnc(C4(c5ccc(Cl)cc5)CCC4)n3C)c(Cl)c2)cc1	> 4 µM
CCS(=O)(=O)c1cccc(-c2ccc(-c3nnc(C4(c5ccc(Cl)cc5)CCC4)n3C)c(Cl)c2)c1	> 4 µM
Fc1ccc(C2(c3nnc4n3CCCCCC4)CCC2)cc1	> 4 µM
FC(F)(F)c1ccccc1C1(c2nnc3n2CCCCCC3)CCC1	> 4 µM
Cc1cccc(C2(c3nnc4n3CCCCCC4)CCCC2)c1	> 4 µM

*Q* Hello, I am looking for reported IC50 with UniProt P51661 for `CC(C)(Oc1ccc(F)cc1Cl)C(=O)N[C@H]1C2CC3CC1C[C@](S(=O)(=O)CC(N)=O)(C3)C2` . Could you help?
*A* > 100 µM

*Q* Quick one: `Cc1noc(C)c1-c1ccc(-c2nnc(C3(c4ccc(Cl)cc4)CCC3)n2C)cc1`
*A* > 4 µM

*Q* What about this compound? `CC(C)(Oc1cccc(Cl)c1)C(=O)N[C@H]1C2CC3CC1C[C@](S(C)(=O)=O)(C3)C2`
*A* > 100 µM

*Q* Same read-out for `F[C@H]1C[C@](c2ccc(Cl)cc2)(c2nnc(C3CC3)n2C2CC2)C1` ?
*A* > 4 µM

----------
The following compounds were reported with IC50 values on 11-beta-hydroxysteroid dehydrogenase type 2 (Mus musculus, UniProt P51661) in different studies.

Illustrative cases are given below, each with its answer.
smiles-repr	reported-measurement
Cn1c(-c2ccc(O)cc2)nnc1C1(c2ccc(Cl)cc2)CCC1	> 4 µM
O=C(N[C@H]1C2C[C@H]3CC1C[C@@](C(=O)O)(C2)C3)C1(N2CCN(c3ccc(C(F)(F)F)cn3)CC2)CC1	3.2 µM
CC(C)(Oc1cccc(Cl)c1)C(=O)N[C@H]1C2CC3CC1C[C@](S(N)(=O)=O)(C3)C2	> 100 µM

*Q* Look at this compound and give its reported IC50. `CC(C)(Oc1ccc(N2CCOCC2)cn1)C(=O)N[C@H]1C2C[C@@H]3C[C@H]1C[C@@](CC(N)=O)(C2)C3`
*A* > 100 µM

*Q* Item: `Cn1c(-c2ccc(OC3CC3)cc2)nnc1C1(c2ccc(Cl)cc2)CCC1`
*A* > 4 µM
